Each entry below lists one item and its recorded pIC50 value.
# assay_target: Metabotropic glutamate receptor 5 (Rattus norvegicus, UniProt P31424)
# Sequence (P31424 whole entry): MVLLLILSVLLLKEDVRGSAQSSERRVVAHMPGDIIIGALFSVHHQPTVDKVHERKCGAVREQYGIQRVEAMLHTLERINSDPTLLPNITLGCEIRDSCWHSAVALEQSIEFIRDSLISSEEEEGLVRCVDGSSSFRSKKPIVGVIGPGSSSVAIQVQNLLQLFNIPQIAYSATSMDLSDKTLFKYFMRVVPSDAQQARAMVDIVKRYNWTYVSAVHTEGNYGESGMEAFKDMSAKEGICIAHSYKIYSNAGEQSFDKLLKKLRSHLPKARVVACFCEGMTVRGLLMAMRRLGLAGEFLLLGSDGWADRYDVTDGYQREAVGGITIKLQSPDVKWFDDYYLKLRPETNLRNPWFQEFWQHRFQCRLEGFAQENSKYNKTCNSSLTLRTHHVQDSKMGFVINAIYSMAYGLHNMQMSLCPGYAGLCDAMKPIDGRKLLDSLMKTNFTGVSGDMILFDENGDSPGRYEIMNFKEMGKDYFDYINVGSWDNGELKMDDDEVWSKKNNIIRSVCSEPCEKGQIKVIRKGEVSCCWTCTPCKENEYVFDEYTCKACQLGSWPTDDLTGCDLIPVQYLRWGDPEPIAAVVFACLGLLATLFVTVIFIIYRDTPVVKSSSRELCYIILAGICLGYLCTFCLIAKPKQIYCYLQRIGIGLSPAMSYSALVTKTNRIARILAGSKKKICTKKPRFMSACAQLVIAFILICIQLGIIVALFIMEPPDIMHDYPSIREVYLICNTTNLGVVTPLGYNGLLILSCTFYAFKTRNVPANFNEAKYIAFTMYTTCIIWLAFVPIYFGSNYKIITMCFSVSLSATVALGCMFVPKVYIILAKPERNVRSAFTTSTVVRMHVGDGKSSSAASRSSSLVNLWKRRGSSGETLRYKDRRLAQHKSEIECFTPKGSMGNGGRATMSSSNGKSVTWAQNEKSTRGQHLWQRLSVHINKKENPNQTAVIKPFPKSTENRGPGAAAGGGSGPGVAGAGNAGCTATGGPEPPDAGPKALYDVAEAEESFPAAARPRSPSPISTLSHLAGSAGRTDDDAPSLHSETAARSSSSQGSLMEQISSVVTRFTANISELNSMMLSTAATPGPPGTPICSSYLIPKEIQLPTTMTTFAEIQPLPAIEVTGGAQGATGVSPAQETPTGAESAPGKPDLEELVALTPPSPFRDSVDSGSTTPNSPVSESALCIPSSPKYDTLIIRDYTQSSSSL
# protocol_summary: Antagonist activity at rat mGluR5 expressed in CHO cells assessed as inhibition of L-glutamate-induced inositol monophosphate accumulation after 1 hr by FRET assay
Bear in mind: pIC50 is minus log10 of a mol/L concentration; give just that figure.

Problem: Please give the measured pIC50 for this molecule: CN(CCN1CCOCC1)CC(=O)c1c(-c2ccccc2)[nH]c2ccccc12
Result: 3.57

Problem: What would you report for CN(CC(=O)c1c(-c2ccccc2)[nH]c2ccccc12)CC(=O)N1CCOCC1 ?
Result: 3.65

Problem: And the next one, O=C(CN1CCCC(C(=O)N2CCOCC2)C1)c1c(-c2ccccc2)[nH]c2ccccc12 (centres undefined) ?
Result: 3.58

Could you now consider this next molecule?
Problem: What does the data say about its pIC50? Entry: COc1ccc(-c2[nH]c3ccccc3c2C(=O)CN(C)CC(=O)N2CCOCC2)cc1
Result: 4.38

----------
This listing pairs compounds with measured pIC50.
# assay_target: Extracellular calcium-sensing receptor (Rattus norvegicus, UniProt P48442)
# Sequence (P48442 whole entry): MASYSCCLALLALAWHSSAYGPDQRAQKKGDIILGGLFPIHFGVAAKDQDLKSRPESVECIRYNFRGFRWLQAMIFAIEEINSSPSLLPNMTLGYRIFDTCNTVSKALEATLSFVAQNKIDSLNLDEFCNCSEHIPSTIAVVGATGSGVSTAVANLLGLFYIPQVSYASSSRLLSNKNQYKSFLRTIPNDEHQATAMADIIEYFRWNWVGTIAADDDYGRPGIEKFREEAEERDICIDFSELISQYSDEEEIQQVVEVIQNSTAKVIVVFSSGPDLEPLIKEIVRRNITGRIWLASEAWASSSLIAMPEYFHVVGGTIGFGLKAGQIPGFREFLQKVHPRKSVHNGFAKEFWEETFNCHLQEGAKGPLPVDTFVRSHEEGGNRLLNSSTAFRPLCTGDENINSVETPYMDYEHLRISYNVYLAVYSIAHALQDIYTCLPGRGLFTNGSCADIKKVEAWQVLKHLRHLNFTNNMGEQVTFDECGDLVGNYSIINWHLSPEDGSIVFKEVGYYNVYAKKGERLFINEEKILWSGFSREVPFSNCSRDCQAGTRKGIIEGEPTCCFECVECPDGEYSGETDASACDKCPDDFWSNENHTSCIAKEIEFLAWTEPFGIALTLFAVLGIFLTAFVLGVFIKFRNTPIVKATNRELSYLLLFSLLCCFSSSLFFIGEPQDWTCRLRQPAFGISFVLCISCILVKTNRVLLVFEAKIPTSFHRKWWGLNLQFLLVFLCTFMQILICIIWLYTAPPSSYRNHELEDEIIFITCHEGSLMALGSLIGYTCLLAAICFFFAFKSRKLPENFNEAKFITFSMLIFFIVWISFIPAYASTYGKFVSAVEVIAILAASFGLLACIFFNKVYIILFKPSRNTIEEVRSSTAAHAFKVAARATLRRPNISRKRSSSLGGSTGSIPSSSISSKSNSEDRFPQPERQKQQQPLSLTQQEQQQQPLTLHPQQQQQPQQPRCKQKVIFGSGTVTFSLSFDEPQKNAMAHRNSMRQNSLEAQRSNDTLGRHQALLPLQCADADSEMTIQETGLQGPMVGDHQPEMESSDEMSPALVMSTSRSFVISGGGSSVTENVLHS
# protocol_summary: Antagonist activity at rat CaSR expressed in HEK293 cells assessed as inhibition of Ca2+-induced inositol monophosphate accumulation after 30 min by FRET assay
// scale note: pIC50 = -log10(conc_M); give the bare number

Worked cases, answers included:
Problem: Which value of pIC50 has been reported for CN(CC(=O)c1c(-c2ccccc2)[nH]c2ccccc12)CC(=O)N1CCOCC1 in the records?
Result: 3.50

Problem: Moving on to COc1ccc(-c2[nH]c3ccccc3c2C(=O)CN(C)CC(=O)N2CCOCC2)cc1
Result: 4.25

Problem: Also need CN(CCN1CCOCC1)CC(=O)c1c(-c2ccccc2)[nH]c2ccccc12 , thanks.
Result: 3.46

Shift focus to the following entry.
Problem: Data request, read-out pIC50, for O=C(CN1CCCC(C(=O)N2CCOCC2)C1)c1c(-c2ccccc2)[nH]c2ccccc12 (centres undefined)
Result: 3.62

----------
# assay_target: 5-hydroxytryptamine receptor 2C (Homo sapiens)
# Sequence (P28335 whole entry): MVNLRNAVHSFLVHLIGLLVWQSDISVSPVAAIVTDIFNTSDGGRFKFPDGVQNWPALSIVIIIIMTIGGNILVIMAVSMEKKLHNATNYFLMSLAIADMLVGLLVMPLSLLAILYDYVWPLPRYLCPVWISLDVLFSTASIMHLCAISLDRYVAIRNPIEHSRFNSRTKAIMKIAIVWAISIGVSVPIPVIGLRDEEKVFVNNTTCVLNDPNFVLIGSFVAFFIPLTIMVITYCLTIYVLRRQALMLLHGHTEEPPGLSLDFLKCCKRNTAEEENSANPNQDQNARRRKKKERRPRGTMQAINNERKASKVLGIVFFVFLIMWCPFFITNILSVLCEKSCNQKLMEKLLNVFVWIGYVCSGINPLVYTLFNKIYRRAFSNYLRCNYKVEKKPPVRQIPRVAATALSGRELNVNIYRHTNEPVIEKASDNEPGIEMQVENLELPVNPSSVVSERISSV
# protocol_summary: Antagonist activity at human 5HT2C receptor expressed in HEK293 cells assessed as inhibition of serotonin-induced inositol monophosphate accumulation after 1 hr by FRET assay
Listed next: entries and their corresponding IC50.

Below, 3 molecules whose answers are already recorded.
Problem: Consider the molecule shown here: O=C(CN1CCCC(C(=O)N2CCOCC2)C1)c1c(-c2ccccc2)[nH]c2ccccc12 (centres undefined) What is its recorded IC50?
Result: 209 µM

Problem: Item: CN(CCN1CCOCC1)CC(=O)c1c(-c2ccccc2)[nH]c2ccccc12
Result: 269 µM

Problem: Also COc1ccc(-c2[nH]c3ccccc3c2C(=O)CN(C)CC(=O)N2CCOCC2)cc1 , if possible.
Result: 51.3 µM

# evaluate next
Problem: Look up IC50 for this molecule: CN(CC(=O)c1c(-c2ccccc2)[nH]c2ccccc12)CC(=O)N1CCOCC1
Result: 214 µM

----------
# assay_target: G-protein coupled receptor family C group 6 member A (Mus musculus) (UniProt Q8K4Z6)
# Sequence (whole entry): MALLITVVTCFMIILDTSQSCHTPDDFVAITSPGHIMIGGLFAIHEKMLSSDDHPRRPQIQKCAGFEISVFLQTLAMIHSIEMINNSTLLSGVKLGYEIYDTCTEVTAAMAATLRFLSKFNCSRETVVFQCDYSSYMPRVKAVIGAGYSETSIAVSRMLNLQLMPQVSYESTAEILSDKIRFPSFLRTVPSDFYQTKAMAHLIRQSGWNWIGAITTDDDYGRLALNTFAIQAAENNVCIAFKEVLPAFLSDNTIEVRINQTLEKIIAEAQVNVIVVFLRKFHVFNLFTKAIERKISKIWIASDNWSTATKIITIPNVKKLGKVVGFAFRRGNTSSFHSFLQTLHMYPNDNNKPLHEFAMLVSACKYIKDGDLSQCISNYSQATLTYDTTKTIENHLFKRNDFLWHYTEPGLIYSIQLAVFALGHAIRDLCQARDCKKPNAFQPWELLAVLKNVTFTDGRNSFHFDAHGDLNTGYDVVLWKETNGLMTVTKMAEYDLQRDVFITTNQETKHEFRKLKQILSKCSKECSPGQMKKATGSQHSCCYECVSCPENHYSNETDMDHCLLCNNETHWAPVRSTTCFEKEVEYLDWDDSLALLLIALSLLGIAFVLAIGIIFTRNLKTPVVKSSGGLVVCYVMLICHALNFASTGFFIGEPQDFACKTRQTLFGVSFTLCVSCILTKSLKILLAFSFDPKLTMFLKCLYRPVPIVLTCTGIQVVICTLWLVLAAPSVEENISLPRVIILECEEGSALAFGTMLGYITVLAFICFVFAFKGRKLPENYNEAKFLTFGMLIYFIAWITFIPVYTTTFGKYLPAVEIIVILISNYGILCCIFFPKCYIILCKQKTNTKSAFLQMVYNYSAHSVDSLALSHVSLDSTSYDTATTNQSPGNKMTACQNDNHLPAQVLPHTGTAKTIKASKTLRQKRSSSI
# protocol_summary: Relative antagonist potency at mouse GPRC6A receptor expressed in HEK293 cells assessed as L-ornithine-induced inositol monophosphate accumulation after 1 hr by FRET assay relative to 2-[methyl-(2-morpholino-2-oxo-ethyl)amino]-1-(2-phenyl-1H-indol-3-yl)ethanone
parameter: Relative potency
Reply briefly: the number, and no unit.

Problem: For G-protein coupled receptor family C group 6 member A (Mus musculus) (UniProt Q8K4Z6), provide Relative potency of O=C(CNCC(=O)N1CCOCC1)c1c(-c2ccccc2)[nH]c2ccccc12 please.
Result: 9

Problem: What do we get for CN(CC(=O)c1c(-c2ccccc2)[nH]c2ccc(F)cc12)CC(=O)N1CCOCC1 ?
Result: 55

Problem: Moving on to the next compound: COc1ccc2[nH]c(-c3ccccc3)c(C(=O)CN(C)CC(=O)N3CCOCC3)c2c1
Result: 33

---
Problem: Test system G-protein coupled receptor family C group 6 member A (Mus musculus) (UniProt Q8K4Z6); read-out Relative potency; what value for CN(CC(=O)c1c(-c2ccccc2)[nH]c2ccccc12)CC(=O)N1CCCC1 ?
Result: 38

Problem: Similarly, CN(CCc1c(-c2ccccc2)[nH]c2ccccc12)CC(=O)N1CCOCC1 ?
Result: 17

Problem: Check CN(CC(=O)c1c(-c2ccco2)[nH]c2ccccc12)CC(=O)N1CCOCC1 too.
Result: 9

Problem: // same read-out, input: CN(CC(=O)c1c(-c2ccc(F)cc2)[nH]c2ccccc12)CC(=O)N1CCOCC1
Result: 103

----------
# assay_target: G-protein coupled receptor family C group 6 member A (Mus musculus, UniProt Q8K4Z6)
# Sequence (Q8K4Z6 whole entry): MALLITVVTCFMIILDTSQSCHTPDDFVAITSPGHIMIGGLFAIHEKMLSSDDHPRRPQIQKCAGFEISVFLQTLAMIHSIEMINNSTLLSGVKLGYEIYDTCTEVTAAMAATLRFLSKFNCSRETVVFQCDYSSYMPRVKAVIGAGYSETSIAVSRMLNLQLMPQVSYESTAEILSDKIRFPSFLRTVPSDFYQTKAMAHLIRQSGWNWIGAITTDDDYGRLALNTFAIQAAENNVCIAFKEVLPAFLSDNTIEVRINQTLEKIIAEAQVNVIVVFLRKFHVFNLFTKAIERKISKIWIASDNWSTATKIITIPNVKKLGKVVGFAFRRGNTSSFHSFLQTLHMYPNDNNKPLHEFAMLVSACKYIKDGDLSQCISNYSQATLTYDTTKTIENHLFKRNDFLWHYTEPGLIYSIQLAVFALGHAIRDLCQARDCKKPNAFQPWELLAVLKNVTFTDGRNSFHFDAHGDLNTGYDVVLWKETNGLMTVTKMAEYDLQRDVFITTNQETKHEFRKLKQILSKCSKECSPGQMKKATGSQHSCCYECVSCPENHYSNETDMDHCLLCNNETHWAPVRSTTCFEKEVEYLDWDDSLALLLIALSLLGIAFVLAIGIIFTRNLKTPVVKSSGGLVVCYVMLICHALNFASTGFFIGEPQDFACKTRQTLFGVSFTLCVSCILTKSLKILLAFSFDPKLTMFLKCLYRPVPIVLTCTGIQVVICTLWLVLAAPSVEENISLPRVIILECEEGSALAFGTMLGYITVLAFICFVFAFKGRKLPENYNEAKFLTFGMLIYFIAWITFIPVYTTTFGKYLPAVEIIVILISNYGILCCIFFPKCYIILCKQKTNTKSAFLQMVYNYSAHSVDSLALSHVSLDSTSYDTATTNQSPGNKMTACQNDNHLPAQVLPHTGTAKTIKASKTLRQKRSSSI
# protocol_summary: Antagonist activity at mouse GPRC6A receptor expressed in HEK293 cells assessed as inhibition of L-ornithine-induced inositol monophosphate accumulation after 1 hr by FRET assay
Please assign Criterion not met whenever IC50 is at or above 40 µM, and Criterion met whenever it is below.

Worked set:
Problem: Decide: IC50 of CN(CC(=O)c1c(-c2ccccc2)[nH]c2ccc(CC(=O)N(C)C)cc12)CC(=O)N1CCOCC1 strictly below 40 µM?
Result: Criterion not met

Problem: Request: CN(CC(=O)c1c[nH]c2ccccc12)CC(=O)N1CCOCC1
Result: Criterion not met

Problem: Moving on to CN(CCc1c(-c2ccccc2)[nH]c2ccccc12)CC(=O)N1CCOCC1
Result: Criterion not met

Problem: Query CN(CC(=O)N1CCOCC1)C(=O)c1c(-c2ccccc2)[nH]c2ccccc12 next
Result: Criterion not met

Problem: Moving on to the next compound: CN(CC(=O)c1c(-c2ccco2)[nH]c2ccccc12)CC(=O)N1CCOCC1
Result: Criterion not met

Problem: What do we get for CN(CCN1CCOCC1)CC(=O)c1c(-c2ccccc2)[nH]c2ccccc12 ?
Result: Criterion met

***
Problem: # strict comparison: is reported IC50 < 40 µM? input = CN(CC(=O)c1c(-c2ccc(F)cc2)[nH]c2ccccc12)CC(=O)N1CCOCC1
Result: Criterion met

Problem: Then COc1ccc2[nH]c(-c3ccccc3)c(C(=O)CN(C)CC(=O)N3CCOCC3)c2c1 ?
Result: Criterion not met

Problem: Field entry: O=C(CN1CCCC(C(=O)N2CCOCC2)C1)c1c(-c2ccccc2)[nH]c2ccccc12 (stereo unspecified)
Result: Criterion met

Problem: For O=C(CNCC(=O)N1CCOCC1)c1c(-c2ccccc2)[nH]c2ccccc12 then?
Result: Criterion not met
